Tested on: mice
Experiment: phenylquinone-induced writhing test in mice (PQW), analgesia
Assay type: in vivo, male, CD-1 mice
Conditions: Mus musculus; Table III; 20 mg/kg SC; read-out: PQW % (percent inhibition of writhing)
Counter-ions that a name gives are not always drawn.
Quantity name: change in vivo at 20 mg/kg (%)
Reply numerically in %, unit not repeated.

Worked cases, answers included:
Molecule	change in vivo at 20 mg/kg, %
COC(=N)N1CCC2(CC1)OCc1ccccc1OC2C (centres unmarked) [Example 69, hydrochloride]	-74
CC1Oc2ccc(Cl)cc2COC12CCN(CCCC(c1cccc(F)c1)c1cccc(F)c1)CC2 (centres unmarked)	-91
CNC(=O)N1CCC2(CC1)OCc1ccccc1OC2C (centres unmarked)	-35

Give recorded change in vivo at 20 mg/kg. CC1Oc2ccccc2COC12CCN(CCCCC(c1ccc(F)cc1)c1ccc(F)cc1)CC2 (centres unmarked)
-34

Let me know recorded change in vivo at 20 mg/kg for CC1Oc2ccc(Cl)cc2COC12CCN(CCCCC(c1ccc(F)cc1)c1ccc(F)cc1)CC2 (centres unmarked) , thanks.
-25

Identify change in vivo at 20 mg/kg associated with the molecule CC1Oc2ccc([N+](=O)[O-])cc2COC12CCNCC2 (centres unmarked)
-80

Identify change in vivo at 20 mg/kg associated with the molecule CC1Oc2ccc(Cl)cc2COC12CCN(CC(O)COc1ccccc1)CC2 (centres unmarked)
-67

For the molecule CC(=O)N1CCC2(CC1)OCc1cc([N+](=O)[O-])ccc1OC2C (centres unmarked) , give its reported change in vivo at 20 mg/kg.
-22

Please look at this molecule and report its change in vivo at 20 mg/kg: CCNC(=O)N1CCC2(CC1)OCc1ccccc1OC2C (centres unmarked)
-46

Recall and state the measured change in vivo at 20 mg/kg for COc1ccc(OCC(O)CN2CCC3(CC2)OCc2ccccc2OC3C)cc1 (centres unmarked) .
-57

For the molecule CC1Oc2ccc(Cl)cc2COC12CCN(C(c1ccc(F)cc1)c1ccc(F)cc1)CC2 (centres unmarked) , give its reported change in vivo at 20 mg/kg.
-30

For the molecule CCOC(=N)N1CCC2(CC1)OCc1ccccc1OC2C (centres unmarked) [Example 72, hydrochloride] , give its reported change in vivo at 20 mg/kg.
-51

Return the recorded change in vivo at 20 mg/kg value; entry: CC1Oc2ccccc2COC12CCN(CC(O)COc1ccccc1)CC2 (centres unmarked)
-99

Given CC1Oc2ccc(Cl)cc2COC12CCN(CC(O)COc1ccc(F)cc1)CC2 (centres unmarked) , respond with its change in vivo at 20 mg/kg.
-88

Consider the molecule CC1Oc2ccccc2COC12CCN(CC(O)COc1ccc(F)cc1)CC2 (centres unmarked) and give its recorded change in vivo at 20 mg/kg.
-99

Give change in vivo at 20 mg/kg for CC1Oc2c(Cl)cccc2COC12CCN(CCCC(c1ccccc1)c1ccccc1)CC2 (centres unmarked)
-25

# return recorded change in vivo at 20 mg/kg for entry COc1ccc(OCC(O)CN2CCC3(CC2)OCc2cc(Cl)ccc2OC3C)cc1 (centres unmarked)
-47

Input CC1Oc2ccc(Cl)cc2COC12CCN(CCCCc1ccc(F)cc1)CC2 (centres unmarked) , output reported change in vivo at 20 mg/kg.
-68

Could you please provide reported change in vivo at 20 mg/kg for CC(=O)N1CCC2(CC1)OCc1ccccc1OC2C (centres unmarked) ? Thanks!
-27

Return value of change in vivo at 20 mg/kg for input CC1Oc2ccc(F)cc2COC12CCN(CCCC(c1cccc(F)c1)c1cccc(F)c1)CC2 (centres unmarked) , no commentary.
-38
